- System Tested: Orexin/Hypocretin receptor type 1 (Homo sapiens, UniProt O43613)
- Sequence (O43613 whole entry): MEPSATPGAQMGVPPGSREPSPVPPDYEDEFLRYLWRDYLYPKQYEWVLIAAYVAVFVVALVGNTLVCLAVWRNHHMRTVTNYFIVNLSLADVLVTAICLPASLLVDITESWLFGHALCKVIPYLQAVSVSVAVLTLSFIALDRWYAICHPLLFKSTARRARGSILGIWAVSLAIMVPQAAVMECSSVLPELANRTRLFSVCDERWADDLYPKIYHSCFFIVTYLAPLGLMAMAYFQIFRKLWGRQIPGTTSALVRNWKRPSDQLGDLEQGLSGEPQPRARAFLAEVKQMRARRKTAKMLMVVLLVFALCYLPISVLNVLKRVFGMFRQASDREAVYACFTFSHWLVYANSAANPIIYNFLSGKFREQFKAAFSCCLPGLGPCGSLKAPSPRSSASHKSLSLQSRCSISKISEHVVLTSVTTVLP
- Test Summary: Antagonist activity at human OX1R expressed in CHO cells assessed as inhibition of calcium mobilization by FLIPR assay
Quantity Kind: IC50 (nM)
Expressed in nM, but write only the number.

Kindly state the measured IC50 obtained for CCc1nc(Cl)c2n1CCN([C@@H](C(=O)NC)c1ccccc1)[C@H]2CCc1ccc(C#N)cc1 with Orexin/Hypocretin receptor type 1 (Homo sapiens, UniProt O43613). 3900

Kindly state the measured IC50 obtained for CCc1nc(Cl)c2n1CCN([C@@H](C(=O)NC)c1ccccc1)[C@H]2CCc1ccc(C(F)(F)F)c(F)c1F with Orexin/Hypocretin receptor type 1 (Homo sapiens, UniProt O43613). 17

Kindly state the measured IC50 obtained for CNC(=O)[C@@H](c1ccccc1)N1CCn2c(C3CC3)nc(Cl)c2[C@@H]1CCc1ccc(OC(F)F)c(F)c1 with Orexin/Hypocretin receptor type 1 (Homo sapiens, UniProt O43613). 170

Kindly state the measured IC50 obtained for CCc1nc(Cl)c2n1CCN([C@@H](C(=O)NC)c1ccccc1)[C@H]2COc1cccc(C(F)(F)F)c1 with Orexin/Hypocretin receptor type 1 (Homo sapiens, UniProt O43613). 312

###

- System Tested: UniProt O43614
- Test Summary: Antagonist activity at human OX2R expressed in CHO cells assessed as inhibition of calcium mobilization by FLIPR assay
pIC50: −log10 of the molar value.
Returns met if the recorded pIC50 is greater than or equal to 8, and not met otherwise.

Could you please find out whether CNC(=O)[C@@H](c1ccccc1)N1CCn2c(C3CC3)nc(Cl)c2[C@@H]1CCc1ccc(OC(F)F)c(F)c1 has pIC50 that meets 8 or exceeds it? met

Could you please find out whether CNC(=O)[C@@H](c1ccccc1)N1CCn2c(C3CC3)nc(Cl)c2[C@@H]1CCc1ccc(C(F)(F)F)cc1F has pIC50 that meets 8 or exceeds it? not met

###

- System Tested: Orexin receptor type 2 (Homo sapiens)
- Sequence (O43614 whole entry): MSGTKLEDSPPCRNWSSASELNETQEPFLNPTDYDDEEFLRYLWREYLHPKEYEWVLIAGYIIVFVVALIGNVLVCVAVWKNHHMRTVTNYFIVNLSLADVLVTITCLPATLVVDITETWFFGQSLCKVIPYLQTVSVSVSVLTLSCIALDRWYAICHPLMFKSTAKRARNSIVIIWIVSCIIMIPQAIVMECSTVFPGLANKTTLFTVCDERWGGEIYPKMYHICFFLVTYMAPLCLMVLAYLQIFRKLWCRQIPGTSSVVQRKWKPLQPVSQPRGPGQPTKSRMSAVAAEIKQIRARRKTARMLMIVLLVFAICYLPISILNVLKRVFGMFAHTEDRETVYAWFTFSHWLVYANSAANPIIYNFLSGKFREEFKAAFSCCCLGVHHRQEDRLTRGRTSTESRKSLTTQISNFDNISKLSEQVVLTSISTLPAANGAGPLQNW
- Test Summary: Antagonist activity at human OX2R expressed in CHO cells assessed as inhibition of calcium mobilization by FLIPR assay
Quantity Kind: IC50 (nM)
Expressed in nM, but write only the number.

Entry under review: CCc1nc(Cl)c2n1CCN([C@@H](C(=O)NC)c1ccccc1)[C@H]2CCc1cccc(C(F)(F)F)c1F . Reported IC50? 9

Entry under review: CCc1nc(Cl)c2n1CCN([C@@H](C(=O)NC)c1ccccc1)[C@@H]2CCc1ccc(C(F)(F)F)c(F)c1 . Reported IC50? 227

Entry under review: CCc1nc(Cl)c2n1CCN([C@@H](C(=O)NC)c1ccccc1)[C@H]2CCc1ccc(OC(F)F)cc1 . Reported IC50? 1

Entry under review: CCc1nc(Cl)c2n1CCN([C@@H](C(=O)NC)c1ccccc1)[C@H]2CCc1cc(F)c(C(F)(F)F)cc1F . Reported IC50? 17

Where do these numbers come from? They come from ChEMBL document CHEMBL2396638.
